Assignment: determine reported Ratio Ki for the given compounds.
# Organism: Homo sapiens
# assay_comment: Selectivity index, ratio of Ki for Bcl-2 (unknown origin) to Ki for Bcl-XL (unknown origin)

These solved cases illustrate the format of a correct answer.
I am curious: what Ratio Ki value has been reported for O=C(NS(=O)(=O)c1ccc(NCCSc2ccccc2)c([N+](=O)[O-])c1)c1ccc(C(=O)c2ccccc2)cc1 ?
10

Again, but for O=C(/C=C/c1ccc(Cl)cc1)Nc1ccc(C(=O)NS(=O)(=O)c2ccc(NCCSc3ccccc3)c([N+](=O)[O-])c2)cc1
5

// below: Ratio Ki requested for another compound
I am curious: what Ratio Ki value has been reported for O=C(/C=C/c1ccccc1Cl)Nc1ccc(C(=O)NS(=O)(=O)c2ccc(NCCSc3ccccc3)c([N+](=O)[O-])c2)cc1 ?
5
